The reported numbers originate from patent US20140314667A1.

Entries and their Titer, antigen binding
STUDY TARGET: T1, EGFRvIII-Rabbit Fc fusion protein (human; rabbit, UniProt P00533 25-645)
T1 construct: Made in 293F cells; also called EGFRvIII-RbFc; EGFRvIII-Rab Ig Fc fusion protein; not shown: Hinge-CH2-CH3 domain of rabbit IgG (721 bp fragment)
MEASUREMENT NOTES: ELISA, recombinant antibody supernatant on coated EGFRvIII-RbFc, 1.5 ug/ml

BINDER: SC-EGFRvIII-XG1-211 (antibody, IgG1, V domains shown, Recombinant IgG1 kappa; also called sc211; SC211) VH: QVQLVESGGGVVQPGRSLRLSCVASGFTLSSYGMHWVRQAPGKGLEWVAVTSYDGSKKDYADSAKGRFTISRDNSKNTLYLQMNSLRAEDTAVYYCVSEGYCSSSSCYKYYYYGMDVWGQGTTVTVSS VL: DIVMTQSPLSLPVTPGEPASISCRSSQSLLYRNGNNYLDWYLQRPGQSPQLLIYLGSNRASGVPDRFSGSGSGTDFTLKISRVEAEDVGVYYCMQALQTPRTFGQGTKVEIK
Titer, antigen binding: > 64 titer (1:x dilution of supernatant)
--
BINDER: SC-EGFRvIII-XG1-123/124 (antibody, IgG1, V domains shown, Recombinant IgG1 kappa; also called mAb ID 129A7) VH: QVQLVESGGGVVQPGRSLRLSCAASGFTLSSYGMHWVRQAPGKGLEWVAVMSYDGSKEDYADSVKGRFTISRDNSENTLYLQMNSLRAEDTAVYYCVSEGYCSSRSCYKYYYYGMDVWGQGTTVTVSS VL: DIVMTQSPLSLPVTPGEPASISCRSSQSLLYRNGNNYLDWYLQKPGQSPQLLIYLGSNRASGVPDRFSGSGSGTDFTLNISRVEAEDVGHYYCMQALQTPRTFGQGTKVEIK
Titer, antigen binding: > 64 titer (1:x dilution of supernatant)
--
BINDER: SC-EGFRvIII-XG1-333 (antibody, IgG1, V domains shown, Recombinant IgG1 kappa; also called mAb ID 132D8) VH: QVQLVESGGGVVQPGRSLRLSCVASGFTLSSYGMHWVRQALGKGLEWVAVTSYDGSKKDYADSVKGRFTISRDNSKNTLYLQMNSLRAEDTAVYYCVSEGYCDSTSCYKYYYYGMDVWGQGTTVTVSS VL: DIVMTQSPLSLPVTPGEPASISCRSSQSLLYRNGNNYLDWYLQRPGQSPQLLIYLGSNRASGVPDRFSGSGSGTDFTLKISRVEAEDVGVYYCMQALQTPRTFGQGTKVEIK
Titer, antigen binding: > 64 titer (1:x dilution of supernatant)
--
BINDER: SC-EGFRvIII-XG1-318 (antibody, IgG1, V domains shown, Recombinant IgG1 kappa; also called mAb ID 141A10) VH: QVQLVESGGGVVQPGRSLRLSCVASGFTLSSYGMHWVRQAPGKGLEWVAVTSYDGSKKDYADSVKGRFTISRDNSKNTLYLQMNSLRAEDTAVYYCVSEGYCDSSSCYKYYYYGMDVWGQGTTVTVSS VL: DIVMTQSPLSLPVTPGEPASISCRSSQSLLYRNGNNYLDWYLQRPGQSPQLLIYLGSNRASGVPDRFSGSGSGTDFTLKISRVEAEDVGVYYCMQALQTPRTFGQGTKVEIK
Titer, antigen binding: 64 titer (1:x dilution of supernatant)
--
BINDER: SC-EGFRvIII-XG2-170 (antibody, IgG1, V domains shown, kappa light chain; also called sc170; SC170) VH: QVQLQQSGPGLVKPSQTLSLTCAISGDSVSSNNAAWNWIRQSPARGLEWLGRTYYRSKWYNDYVVSVKSRITINPDTSKNQFSLQLNSVTPEDTAVYYCVRATAFDYWGQGTLVTVSS VL: AIVLTQTPLSSPVTLGQPASISCRSSQSLVHRDGNTYLSWLQQRPGQPPRLLIYKISNRFSGVPDRFSGSGAGTDFTLKISRVEPDDVGVYYCMHTTQLPWTFGQGTKVEIK
Titer, antigen binding: > 64 titer (1:x dilution of supernatant)
